# assay target: AVP-V2 sites (Rattus norvegicus)
# Sequence (Q00788 whole entry): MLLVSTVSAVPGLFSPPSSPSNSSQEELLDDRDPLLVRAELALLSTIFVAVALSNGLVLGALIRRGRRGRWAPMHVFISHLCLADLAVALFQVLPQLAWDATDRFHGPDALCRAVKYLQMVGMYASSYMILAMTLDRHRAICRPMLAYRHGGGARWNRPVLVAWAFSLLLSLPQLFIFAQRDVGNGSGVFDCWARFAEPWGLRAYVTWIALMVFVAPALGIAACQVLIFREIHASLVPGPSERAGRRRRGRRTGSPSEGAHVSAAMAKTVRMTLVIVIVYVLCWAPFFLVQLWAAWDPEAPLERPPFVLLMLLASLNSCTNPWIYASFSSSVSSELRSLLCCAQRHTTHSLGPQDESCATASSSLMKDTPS
# assay name: [3H]AVP radioligand binding to rat kidney medulla crude membrane preparation (AVP-V2 sites)
# measurement setup: rat kidney medulla membranes; 2 nM [3H]AVP; 30 min at 30° C.; read-out: Receptor Binding Results IC50 (nM) [^3 H]-AVP-V2
# Procedure: Nonspecific binding (5-10% of the total binding) was determined using 10 μM unlabeled AVP, and the binding reaction was terminated by filtration as described above for the [^3 H]OT binding assay. +Butlen, D; Guillon, G; Rajerison, RM; Jard, S; Sawyer, WH; Manning, M. 1978 Mol Pharmacol 14:1006.
*1 amine or outer side, *2 acyl side, *3 side chain or, on linkers, in order; H or OH if unused. Where a SMILES comes first, the peptide text is derived from it. [ ]: non-standard residue; d: D form. X13 = CC[C@H](C)[C@H](NC(=S)[C@@H](Cc1ccccc1)N[*:1])C(=O)[*:2]; X11 = CC(C)(C)OC(=O)CSC1=NN([*:1])[C@H](C(=O)[*:2])CC1; X6 = CN(C)C[C@H]1C=NN([*:1])[C@H](C(=O)[*:2])C1; X8 = O=C([C@@H]1CC(N2CCCC2)C=NN1[*:1])[*:2]; X10 = O=C1CC[C@@H](C(=O)[*:2])N([*:1])N1; Piz(1,6-dehydro) = O=C(O)[C@@H]1CCC=NN1; dPiz(1,6-dehydro) = O=C(O)[C@H]1CCC=NN1; X9 = O=C([C@@H]1C=CC=NN1[*:1])[*:2]; X1 = O=C([C@H]1CCCNN1[*:1])[*:2]; dNMeF = CN[C@H](Cc1ccccc1)C(=O)O
observation type: IC50 (nM)

// known answers, use as guide
>>> value_observed("CC[C@H](C)[C@@H]1NC(=O)[C@@H](Cc2ccccc2)NC(=O)[C@@H]2CCCN2C(=O)[C@@H](Cc2ccccc2)N(C)C(=O)[C@@H]2C[C@@H](CN(C)C)C=NN2C(=O)[C@H]2CCC=NN2C1=O [Example 18] (cyclo(I[dPiz(1,6-dehydro)][X6][dNMeF]P[dF]))")
2800
>>> value_observed("CC[C@H](C)[C@@H]1NC(=O)[C@@H](Cc2ccccc2)NC(=O)[C@@H]2CCCN2C(=O)[C@@H](Cc2ccccc2)N(C)C(=O)[C@@H]2CC(N3CCCC3)C=NN2C(=O)[C@H]2CCC=NN2C1=O (some centres unmarked) [Example 15] (cyclo(I[dPiz(1,6-dehydro)][X8][dNMeF]P[dF]))")
11000
>>> value_observed("CC[C@H](C)[C@@H]1NC(=O)[C@@H](Cc2ccccc2)NC(=O)[C@@H]2CCCN2C(=O)[C@@H](Cc2ccccc2)N(C)C(=O)[C@@H]2CCC(SCC(=O)OC(C)(C)C)=NN2C(=O)[C@H]2CCC=NN2C1=O [Example 9] (cyclo(I[dPiz(1,6-dehydro)][X11][dNMeF]P[dF]))")
10000
>>> value_observed("CC[C@H](C)[C@@H]1NC(=O)[C@@H](Cc2ccccc2)NC(=O)[C@@H]2CCCN2C(=O)[C@@H](Cc2ccccc2)N(C)C(=O)[C@@H]2CCC(=O)NN2C(=O)[C@H]2CCCNN2C1=O [Example 4] (cyclo(I[X1][X10][dNMeF]P[dF]))")
18900

[1] CC[C@H](C)[C@@H]1NC(=O)[C@@H](Cc2ccccc2)NC(=O)[C@@H]2CCCN2C(=O)[C@@H](Cc2ccccc2)N(C)C(=O)[C@@H]2C=CC=NN2C(=O)[C@H]2CCC=NN2C1=O [Example 8] (cyclo(I[dPiz(1,6-dehydro)][X9][dNMeF]P[dF]))
[2] CC[C@H](C)[C@@H]1NC(=S)[C@@H](Cc2ccccc2)NC(=O)[C@@H]2CCCN2C(=O)[C@@H](Cc2ccccc2)N(C)C(=O)[C@@H]2CCC=NN2C(=O)[C@H]2CCC=NN2C1=O [Example 10] (cyclo(P[X13][dPiz(1,6-dehydro)][Piz(1,6-dehydro)][dNMeF]))
[3] CC[C@H](C)[C@@H]1NC(=S)[C@@H](Cc2ccccc2)NC(=S)[C@@H]2CCCN2C(=O)[C@@H](Cc2ccccc2)N(C)C(=O)[C@@H]2CCC=NN2C(=O)[C@H]2CCC=NN2C1=O
In: Ordering criterion: IC50; begin with the maximum. To answer, arrange all of the labels according to the requested order.
Out: 1, 3, 2

Sourced from patent US5026703A
